Target: HIV-1 NefNL4-3 (Human immunodeficiency virus type 1 group M subtype B, UniProt P03406, A33V/T15A/T51N/V11I)
Test: Surface plasmon resonance binding to recombinant full-length Nef (NL4-3)
Settings: response units at 30 μM relative to Nef immobilized on the SPR chip
RU30/RUNef (extent of binding) values, listed per item
READOUT LABEL: RU30/RUNef (extent of binding)

>  <MOLECULE>
O=C(c1ccc(F)cc1)N1CCC(CCc2c(C3CC3)nn(-c3nc4cc(Cl)ccc4[nH]3)c2O)CC1

>  <VALUE>
2.12E- 02

$$$$
>  <MOLECULE>
CC(C)(C)OC(=O)N1CCC(CCc2c(-c3ccc(S(C)(=O)=O)cc3)nn(-c3nc4ccccc4[nH]3)c2O)CC1

>  <VALUE>
1.83E- 02

$$$$
>  <MOLECULE>
CC(C)COC(=O)N1CCC(c2nn(-c3nc4ccccc4[nH]3)c(O)c2CCc2ccc(F)cc2)CC1

>  <VALUE>
1.20E- 02

$$$$
>  <MOLECULE>
Oc1c(CCc2ccc(F)cc2)c(C2CCN(CC3CCOCC3)CC2)nn1-c1nc2ccccc2[nH]1

>  <VALUE>
7.48E- 04

$$$$
>  <MOLECULE>
CS(=O)(=O)c1ccc(-c2nn(-c3nc4cc(Cl)ccc4[nH]3)c(O)c2CCC2CCOCC2)cc1

>  <VALUE>
6.97E- 03

$$$$
>  <MOLECULE>
Oc1c(CCc2ccc(F)cc2)c(C2CC2)nn1-c1nc2cccnc2[nH]1

>  <VALUE>
6.06E- 03

$$$$
>  <MOLECULE>
Oc1c(CC2CCOCC2)c(-c2cccc(F)c2)nn1-c1nc2ccccc2[nH]1

>  <VALUE>
2.48E- 03

$$$$
>  <MOLECULE>
Oc1c(CCC2CCNCC2)c(C2CC2)nn1-c1nc2cc(Cl)ccc2[nH]1

>  <VALUE>
3.65E- 02

$$$$
>  <MOLECULE>
CC(C)(C)OC(=O)N1C[C@@H]2[C@H](C1)[C@H]2c1nn(-c2nc3ccccc3[nH]2)c(O)c1CCc1ccc(F)cc1

>  <VALUE>
8.59E- 03

$$$$
>  <MOLECULE>
OCCc1c(-c2ccc(C(F)(F)F)cc2)nn(-c2nc3ccccc3[nH]2)c1O

>  <VALUE>
9.06E- 04

$$$$
>  <MOLECULE>
O=C(OCc1ccccc1)N1CCC(c2nn(-c3nc4ccncc4[nH]3)c(O)c2CCc2ccc(F)cc2)CC1

>  <VALUE>
2.36E- 03

$$$$
>  <MOLECULE>
Oc1c(CC2CCOCC2)c(-c2ccc(F)cc2)nn1-c1nc2ccccc2[nH]1

>  <VALUE>
8.50E- 03

$$$$
>  <MOLECULE>
CC(=O)N1CCC(CCc2c(-c3ccc(C(F)(F)F)cc3)nn(-c3nc4ccccc4[nH]3)c2O)CC1

>  <VALUE>
9.42E- 03

$$$$
>  <MOLECULE>
O=S(=O)(c1cccnc1)N1CCC(c2nn(-c3nc4ccccc4[nH]3)c(O)c2CCc2ccc(F)cc2)CC1

>  <VALUE>
2.76E- 03

$$$$
>  <MOLECULE>
Oc1c(CC2CCCOC2)c(-c2ccc(F)cc2)nn1-c1nc2ccccc2[nH]1 (centres unmarked)

>  <VALUE>
6.67E- 04

$$$$
>  <MOLECULE>
O=C(C1CCOC1)N1CCC(c2nn(-c3nc4ccccc4[nH]3)c(O)c2CCc2ccc(F)cc2)CC1 (centres unmarked)

>  <VALUE>
1.02E- 02

$$$$
>  <MOLECULE>
CS(=O)(=O)N1CCC(CCc2c(-c3ccc(C(F)(F)F)cn3)nn(-c3nc4ccccc4[nH]3)c2O)CC1

>  <VALUE>
5.13E- 03

$$$$
>  <MOLECULE>
Oc1c(CC2CCOCC2)c(C2CC(F)(F)C2)nn1-c1nc2cccnc2[nH]1

>  <VALUE>
1.19E- 03

$$$$
>  <MOLECULE>
Cn1cccc(CCc2c(-c3ccc(C(F)(F)F)cc3)nn(-c3nc4ccccc4[nH]3)c2O)c1=O

>  <VALUE>
1.02E- 03

$$$$
>  <MOLECULE>
CC(C)(C)OC(=O)N1CCC(CCc2c(C3CC3)nn(-c3nc4cc(Cl)ccc4[nH]3)c2O)CC1

>  <VALUE>
1.32E- 02

$$$$

The origin of these recorded values is patent US20220380341A1.
